# Test Details: ovarian cancer cell viability with rucaparib, profiling panel, oncology-focused library, rucaparib conditional (AID 1508598)
# Condition: patient-derived ovarian cancer cells, CellTiter-Glo viability, 144 h; at 1.25 µM; OCI-C5x cells; without rucaparib; hits give low values
Active and inactive are the calls of the source.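 The calls were made as follows: active = normalized viability below 100% at a tested concentration; inactive = the rest.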
Reported Property: viability

INSERT INTO assay_data (compound, reported_property, recorded_value) VALUES
  ('C#Cc1cccc(Nc2ncnc3cc(OCCOC)c(OCCOC)cc23)c1', 'viability', '91.8% (active)'),
  ('O=C(CCc1ccc(O)cc1)c1c(O)cc(O)cc1O', 'viability', '125% (inactive)'),
  ('CN(N=O)C(=O)N[C@@H]1[C@@H](O)[C@H](O)[C@@H](CO)O[C@@H]1O', 'viability', '109% (inactive)'),
  ('CN1CC[C@H](c2c(O)cc(O)c3c(=O)cc(-c4ccccc4Cl)oc23)[C@H](O)C1', 'viability', '10.5% (active)'),
  ('Clc1ccc(Nc2nnc(Cc3ccncc3)c3ccccc23)cc1', 'viability', '115% (inactive)'),
  ('CN(C)c1nc(N(C)C)nc(N(C)C)n1', 'viability', '67.8% (active)'),
  ('CC(C)n1c(/C=C/[C@@H](O)C[C@@H](O)CC(=O)O)c(-c2ccc(F)cc2)c2ccccc21', 'viability', '22.5% (active)'),
  ('CNC(=O)c1cc(Oc2ccc(NC(=O)Nc3ccc(Cl)c(C(F)(F)F)c3)cc2)ccn1', 'viability', '120% (inactive)'),
  ('CC/C(=C(\c1ccccc1)c1ccc(OCCN(C)C)cc1)c1ccccc1', 'viability', '100% (inactive)'),
  ('CCCC(CCC)C(=O)O', 'viability', '112% (inactive)'),
  ('Cc1ccc(-n2nc(C(C)(C)C)cc2NC(=O)Nc2ccc(OCCN3CCOCC3)c3ccccc23)cc1', 'viability', '115% (inactive)'),
  ('CS(=O)(=O)CCNCc1ccc(-c2ccc3ncnc(Nc4ccc(OCc5cccc(F)c5)c(Cl)c4)c3c2)o1', 'viability', '126% (inactive)'),
  ('Cc1nc(Nc2ncc(C(=O)Nc3c(C)cccc3Cl)s2)cc(N2CCN(CCO)CC2)n1', 'viability', '71.4% (active)'),
  ('O=c1[nH]c(=O)n([C@H]2CCCO2)cc1F', 'viability', '115% (inactive)'),
  ('CCc1ccc(CCOc2ccc(CC3SC(=O)NC3=O)cc2)nc1 (stereo not given)', 'viability', '123% (inactive)');

* * *

Each entry below lists one item and its recorded growth inhibition value.
# Test Details: antimalarial activity against Dd2 strain (AID 2302);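 also: 0% = DMSO untreated growth and 100% = chloroquine plus artemisinin killed control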
# Condition: P. falciparum Dd2 in RBCs, LDH growth readout, 72 h; at 2 µM; hits give high values
Reported Property: growth inhibition (%)

INSERT INTO measurements (smiles_notation, recorded_value) VALUES
  ('CC(C)(C)NC(=O)COC(=O)c1c2c(nc3ccccc13)C(=Cc1ccc3c(c1)OCO3)CCC2', 82),
  ('Cc1cc(-c2ccc(O)c(CNC3CCCCC3)c2)cnc1N', 100),
  ('Cc1cnc(N)c(/C=C/c2cncc(C(=O)NCCc3ccc(Cl)cc3Cl)c2)c1', 100),
  ('NC1=NC(c2ccccc2)(c2ccccc2)C(=O)N1C1CCCCC1', 87),
  ('O=S(=O)(NCCN1CCCC1)c1cccc(-c2ccccc2CNC2Cc3ccccc3C2)c1', 76);
